- Subject Of Test: 5-hydroxytryptamine receptor 1A (Homo sapiens) (UniProt P08908)
- Sequence (P08908 whole entry, looked up): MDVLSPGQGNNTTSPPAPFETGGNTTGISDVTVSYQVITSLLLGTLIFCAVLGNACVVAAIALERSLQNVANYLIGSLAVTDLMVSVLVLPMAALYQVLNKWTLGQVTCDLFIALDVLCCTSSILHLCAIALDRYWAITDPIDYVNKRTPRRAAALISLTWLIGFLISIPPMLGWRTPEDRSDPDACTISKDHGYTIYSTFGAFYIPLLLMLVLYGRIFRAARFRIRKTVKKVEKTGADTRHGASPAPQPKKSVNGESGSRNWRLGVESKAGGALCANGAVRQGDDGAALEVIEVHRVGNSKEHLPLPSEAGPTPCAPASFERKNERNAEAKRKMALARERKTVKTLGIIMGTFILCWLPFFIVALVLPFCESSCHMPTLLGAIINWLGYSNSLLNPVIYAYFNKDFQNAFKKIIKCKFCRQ
- Assay Notes: human 5-HT1A antagonist potency, dose response, cell-based, CHO, Ga15 NFAT-bla reporter (AID 755)
- Experimental Conditions: CHO 5-HT1A Ga15 NFAT-BLA reporter, FRET antagonist
Active and inactive are the calls of the source.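 How the source made its calls: active means IC50 at or below 10 micromolar; inactive means IC50 above 10 micromolar.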
A correct response names exactly one class from active, inactive

Study these solved cases before continuing.
>  <Compound>
CSc1ccccc1N=CC1=C(O)CC(C)(C)CC1=O

>  <Category>
active

$$$$
>  <Compound>
COc1ccc(N2C(=O)CC(NCc3ccncc3)C2=O)cc1 (stereo not given)

>  <Category>
inactive

$$$$
>  <Compound>
CC(=O)Oc1ccc(N2C(=O)C3C(C2=O)C2(C)C=CC3(C)O2)cc1 (stereo not given)

>  <Category>
active

$$$$

Input line: Hi, sorry to bother you, what did the test record for COc1cc2c(cc1OC)C1=C(C#N)CC/C(=N\S(=O)(=O)c3ccccc3)N1CC2 ?
Output line: inactive

Input line: # outcome recorded in this test, key = O=C1C2C3C=CC(CO)(O3)C2C(=O)N1c1ccc(-c2ccccc2)cc1 (stereo not given)
Output line: inactive
